meta.source: ChEMBL document CHEMBL1649073

Experiment: Drug level in rat brain at 5.6 mg/kg, po after 150 mins
Type: ADME, organism-based
Set-up: dose 5.6 mg/kg, route oral
Details: read-out: Drug uptake
Quantity: concentration at […] (ng/g)
One number for each entry, in ng/g.

Input FC(F)(F)c1ccccc1-c1cc(C(F)(F)F)c2[nH]c(C3=NOC4(CCCCC4)C3)nc2c1 . Output concentration at […]: 414

----------
Test: Volume of distribution at steady state in dog at 2 mg/kg, iv
Format: ADME, organism-based, Canis lupus familiaris
Parameters: dose 2 mg/kg, route intravenous
Settings: in vivo, read-out: Vdss
Quantity: Vd (L/kg)
Give bare numbers, in L/kg.

Input FC(F)(F)c1ccccc1-c1cc(C(F)(F)F)c2[nH]c(C3=NOC4(CCCCC4)C3)nc2c1 . Output Vd: 4.43

----------
Test: Cmax in rat at 10 mg/kg, po
Type: ADME, organism-based
Design: dose 10 mg/kg, route oral
Details: in vivo
Quantity: Cmax
Write the numeric value and append its unit.

>  <Molecule Smiles>
FC(F)(F)c1ccccc1-c1cc(C(F)(F)F)c2[nH]c(C3=NOC4(CCCCC4)C3)nc2c1

>  <Quantity>
Cmax

>  <Reported Result>
1260 ng/mL

$$$$

Input FC(F)(F)c1ccccc1-c1ccc2nc(C3=NOC4(CCCCC4)C3)[nH]c2c1 . Output Cmax: 230 ng/mL

----------
Test: Drug level in rat brain at 3 mg/kg, po after 150 mins
Format: ADME, organism-based
Parameters: dose 3 mg/kg, route oral
Details: read-out: Drug uptake
Quantity: concentration at […] (ng/g)
One number for each entry, in ng/g.

Input FC(F)(F)c1ccccc1-c1cc(C(F)(F)F)c2[nH]c(C3=NOC4(CCCCC4)C3)nc2c1 . Output concentration at […]: 175

----------
Experiment: Drug level in rat plasma at 5.6 mg/kg, po after 150 mins
Assay type: ADME, organism-based
Set-up: dose 5.6 mg/kg, route oral
Settings: read-out: Drug uptake
Quantity: concentration at […] (ng/mL)
Give bare numbers, in ng/mL.

Input FC(F)(F)c1ccccc1-c1cc(C(F)(F)F)c2[nH]c(C3=NOC4(CCCCC4)C3)nc2c1 . Output concentration at […]: 662

----------
Assay: AUC in rat at 10 mg/kg, po
Assay type: ADME, organism-based
Design: dose 10 mg/kg, route oral
Conditions: plasma
Quantity: AUC (ng·h/mL)
Answers are plain numbers, in ng·h/mL.

Input FC(F)(F)c1ccccc1-c1cc(C(F)(F)F)c2[nH]c(C3=NOC4(CCCCC4)C3)nc2c1 . Output AUC: 12300

----------
Assay: Drug level in rat plasma at 10 mg/kg, po after 150 mins
Assay type: ADME, organism-based
Parameters: dose 10 mg/kg, route oral
Conditions: read-out: Drug uptake
Quantity: concentration at […] (ng/mL)
Give bare numbers, in ng/mL.

Input FC(F)(F)c1ccccc1-c1cc(C(F)(F)F)c2[nH]c(C3=NOC4(CCCCC4)C3)nc2c1 . Output concentration at […]: 1040

----------
Test: Volume of distribution at steady state in rat at 2 mg/kg, iv
Assay type: ADME, organism-based
Design: dose 2 mg/kg, route intravenous
Conditions: in vivo, read-out: Vdss
Quantity: Vd (L/kg)
One number for each entry, in L/kg.

Input FC(F)(F)c1ccccc1-c1cc(C(F)(F)F)c2[nH]c(C3=NOC4(CCCCC4)C3)nc2c1 . Output Vd: 2.92

----------
Assay: Oral bioavailability in rat at 10 mg/kg
Format: ADME, organism-based
Conditions: in vivo
Quantity: bioavailability (%)
Give bare numbers, in %.

Input FC(F)(F)c1ccccc1-c1cc(C(F)(F)F)c2[nH]c(C3=NOC4(CCCCC4)C3)nc2c1 . Output bioavailability: 96

----------
Assay: Drug level in rat plasma at 3 mg/kg, po after 150 mins
Assay type: ADME, organism-based
Design: dose 3 mg/kg, route oral
Details: read-out: Drug uptake
Quantity: concentration at […] (ng/mL)
Answers are plain numbers, in ng/mL.

Input FC(F)(F)c1ccccc1-c1cc(C(F)(F)F)c2[nH]c(C3=NOC4(CCCCC4)C3)nc2c1 . Output concentration at […]: 295
